Assay: Solubility of p-TSA in various solvents
Type: physicochemical
Conditions: organic solvent or mixture, thermodynamic from solid; in Glycerol, n = 3
readout: solubility (mg/mL)
Report only the number, with the unit mg/mL understood.

Query :: Look up solubility: Cc1ccc(S(N)(=O)=O)cc1 [p-TSA, p-Toluenesulfonamide]
Result :: 28.4

---

Assay: Solubility of p-TSA in various solvents
Type: physicochemical
Settings: aqueous with cosolvent or surfactant or cyclodextrin, thermodynamic from solid; in 20% 7-sulfobutyl-ether-β-cyclodextrin (SBEβCD), n = 3
readout: solubility
Give the value; after it, write the unit.

Query :: // query solubility value for entry Cc1ccc(S(N)(=O)=O)cc1 [p-TSA, p-Toluenesulfonamide]
Result :: 17.6 mg/mL
